These data points were gathered from paper PMC12069340.

Kindly supply the reported CC50 at 48 h values for the records listed here.
- method.notes: in vitro
- settings: human

Please list CC50 at 48 h recorded for the molecule O=C(C[S+]([O-])Cc1ccco1)NC/C=C\COc1cc(CN2CCCCC2)ccn1 (centres unmarked)
> 80 µM

Please list CC50 at 48 h recorded for the molecule Cc1ccc(OCC(O)C(C)NC(C)C)c2c1CCC2 (centres unmarked)
> 80 µM

----------
Kindly supply the reported viability at 20 µM values for the records listed here.
- method.notes: in vitro
- settings: human, Relative Viability (%)
Where a name gives a salt, the structure may show the parent alone.
Answer with a number only, understood to be in %.

Please list viability at 20 µM recorded for the molecule CC(COc1ccccc1)NC(C)C(O)c1ccc(O)cc1 (stereo not drawn) [Isoxsuprine, Isoxsuprine hydrochloride]
105

Please list viability at 20 µM recorded for the molecule CNCC(O)c1ccc(O)cc1 (stereo not drawn) [Synephrine]
90.5

Please list viability at 20 µM recorded for the molecule N#Cc1ccc2[nH]cc(CCCCN3CCN(c4ccc5oc(C(N)=O)cc5c4)CC3)c2c1 [Vilazodone HCl]
98.9

Please list viability at 20 µM recorded for the molecule CCC(COC(=O)c1cc(OC)c(OC)c(OC)c1)(c1ccccc1)N(C)C (stereo not drawn)
108

Please list viability at 20 µM recorded for the molecule COc1ccc(C(CN(C)C)C2(O)CCCCC2)cc1 (stereo not drawn)
93.2

Please list viability at 20 µM recorded for the molecule CCCN1C[C@H](CSC)C[C@@H]2c3cccc4[nH]cc(c34)C[C@H]21 [Pergolide mesylate]
118

Please list viability at 20 µM recorded for the molecule O=C1CC[C@@]2(O)[C@H]3Cc4ccc(O)c5c4[C@@]2(CCN3CC2CC2)[C@H]1O5 [Naltrexone HCl]
107

Please list viability at 20 µM recorded for the molecule O=C(O[C@H]1C[N+]2(CCCOc3ccccc3)CCC1CC2)C(O)(c1cccs1)c1cccs1 [Aclidinium Bromide]
194

Please list viability at 20 µM recorded for the molecule C[C@H](Cc1cc2c(c(C(N)=O)c1)N(CCCO)CC2)NCCOc1ccccc1OCC(F)(F)F
115

Please list viability at 20 µM recorded for the molecule N=C(N)NC(=O)Cc1c(Cl)cccc1Cl [Guanfacine Hydrochloride]
102

Please list viability at 20 µM recorded for the molecule CN1[C@@H]2CC[C@H]1C[C@@H](OC(=O)c1c[nH]c3ccccc13)C2
80.9

Please list viability at 20 µM recorded for the molecule Nc1nc(CC(=O)Nc2ccc(CCNC[C@H](O)c3ccccc3)cc2)cs1
102

Please list viability at 20 µM recorded for the molecule O=C(O[C@H]1CN2CCC1CC2)N1CCc2ccccc2[C@@H]1c1ccccc1 [Solifenacin succinate]
102

Please list viability at 20 µM recorded for the molecule CN1CCC[C@@H]1CCO[C@](C)(c1ccccc1)c1ccc(Cl)cc1 [Clemastine Fumarate]
88.5

Please list viability at 20 µM recorded for the molecule COc1cc2nc(N3CCN(C(=O)C4CCCO4)CC3)nc(N)c2cc1OC (stereo not drawn)
87.8

Please list viability at 20 µM recorded for the molecule CCC1(c2cnc[nH]2)Cc2ccccc2C1
118

Please list viability at 20 µM recorded for the molecule CCN1CCCC1CNC(=O)c1cc(S(=O)(=O)CC)c(N)cc1OC (stereo not drawn) [Amisulpride]
89.7

Please list viability at 20 µM recorded for the molecule OC(CNCC(O)C1CCc2cc(F)ccc2O1)C1CCc2cc(F)ccc2O1 (stereo not drawn)
89.4
